# Assay Remarks: plasma half-life in the mouse after intravenous injection
# Assay Context: in vivo
Property Name: half-life

INSERT INTO assay_data (compound, result) VALUES
  ('CON=C(C(=O)NC1C(=O)N2C(C(=O)O)=C(CSc3cc(C(=O)O)c4nnnn4n3)CSC12)c1csc(N)n1 (stereo not shown)', '~1.5 h');

====

# Assay Remarks: approximate acute toxicity (LD50) in the mouse
# Assay Context: in vivo, single intravenous administrations of increasing doses, measured on the seventh day
Property Name: LD50 at 168 h

INSERT INTO measurements (molecule, property_name, result) VALUES
  ('CON=C(C(=O)NC1C(=O)N2C(C(=O)O)=C(CSc3cc(C(=O)O)c4nnnn4n3)CSC12)c1csc(N)n1 (stereo not shown)', 'LD50 at 168 h', '> 2000 mg/kg');
